Readings of ratio of IC50 for cells with mutant EGFR to IC50 for cells with wildtype EGFR (Mut/WT) for the listed compounds
target: EGFR E709A G719S (Homo sapiens, UniProt P00533, E709A/G719S); construct: expressed in transfected cells; host or cells: Ba/F3; assay: Ba/F3 drug screening, Cell Titer Glo, IC50 Mut/WT; assay type: cell-based; conditions: PACC; E709A G719S; Ba/F3; 72 hours
QUANTITY MEASURED: ratio of IC50 for cells with mutant EGFR to IC50 for cells with wildtype EGFR (Mut/WT)

1. COc1cc2ncnc(Nc3ccc(F)c(Cl)c3)c2cc1NC(=O)/C=C/CN1CCCCC1 [Dacomitinib] : 0.001614
2. CN(C)C/C=C/C(=O)Nc1cc2c(Nc3ccc(Cl)c(Br)c3)ncnc2cn1 [Tarlox-TKI] : 0.1143
3. COc1cc2ncnc(Nc3cccc(Cl)c3F)c2cc1OC(=O)N1CCN(C)C[C@H]1C [AZD3759] : 0.2131
4. CNC(=O)CN1CCC(Oc2cc3c(Nc4cccc(Cl)c4F)ncnc3cc2OC)CC1 [Sapatinib] : 0.02227

* * *

target: EGFR L858R/V834L (Homo sapiens, UniProt P00533, L858R/V834L); construct: expressed in transfected cells; host or cells: Ba/F3 cells, retroviral pBabe-Puro vector; test: Ba/F3 drug screening, Cell Titer Glo, IC50 Mut/WT; assay type: cell-based; conditions: Classical-Like, 72 hours
Rule: measured ratio of IC50 for cells with mutant EGFR to IC50 for cells with wildtype EGFR (Mut/WT) below 0.006 gets met; anything equal to or greater than 0.006 gets not met.

1. COc1cc2ncnc(Nc3ccc(F)c(Cl)c3)c2cc1NC(=O)/C=C/CN1CCCCC1 : not met
2. CN(C)C/C=C/C(=O)Nc1cc2c(Nc3ccc(Cl)c(Br)c3)ncnc2cn1 : met
3. Cc1cc(C(=O)Nc2nc3cccc(Cl)c3n2[C@@H]2CCCCN(C(=O)/C=C/CN(C)C)C2)ccn1 : not met
4. CNC(=O)CN1CCC(Oc2cc3c(Nc4cccc(Cl)c4F)ncnc3cc2OC)CC1 : met
5. C=CC(=O)Nc1cccc(Oc2nc(Nc3ccc(N4CCN(C)CC4)cc3)nc3ccsc23)c1 : not met
6. C=CC(=O)N1CC[C@@H](Oc2nc(Nc3ccc(N4CCC(N5CCN(C)CC5)CC4)cc3)c(C(N)=O)nc2CC)C1 : not met
7. C=CC(=O)Nc1cc(Nc2nccc(-n3cc(CN(C)C)c(-c4ccccc4)n3)n2)c(OC)cc1N1CCOCC1 : met
8. C=CC(=O)N[C@H]1C=C(C)c2c(-c3cnc4ccccc4c3)c3c(N)ncnc3n2C1 : met
9. COc1cc2ncnc(Nc3cccc(Cl)c3F)c2cc1OC(=O)N1CCN(C)C[C@H]1C : met
10. C=CC(=O)Nc1cc(Nc2nccc(-c3c[nH]c4ccccc34)n2)c(OC)cc1N(C)CCN(C)C : not met

* * *

biological target: EGFR K754E (Homo sapiens, UniProt P00533, K754E); construct: expressed in transfected cells; host or cells: Ba/F3 cells, retroviral pBabe-Puro vector; experiment: Ba/F3 drug screening, Cell Titer Glo, IC50 Mut/WT; assay type: cell-based; conditions: Classical-Like, 72 hours
Catalogue of compounds with associated ratio of IC50 for cells with mutant EGFR to IC50 for cells with wildtype EGFR (Mut/WT)
QUANTITY MEASURED: ratio of IC50 for cells with mutant EGFR to IC50 for cells with wildtype EGFR (Mut/WT)

1. Cc1cc(C(=O)Nc2nc3cccc(Cl)c3n2[C@@H]2CCCCN(C(=O)/C=C/CN(C)C)C2)ccn1 [Nazartinib] : 0.04749
2. C=CC(=O)Nc1cc(Nc2ncc(C(=O)OC(C)C)c(-c3cn(C)c4ccccc34)n2)c(OC)cc1N(C)CCN(C)C [TAK-788 (mobocertinib), mobocertinib] : 0.1738
3. C=CC(=O)Nc1cccc(Oc2nc(Nc3ccc(N4CCN(C)CC4)cc3)nc3ccsc23)c1 [Olmutinib] : 0.008838
